meta.source: ChEMBL document CHEMBL5257098

- Target Or Test System: UniProtKB Q9HC97
- Sequence (Q9HC97 whole entry): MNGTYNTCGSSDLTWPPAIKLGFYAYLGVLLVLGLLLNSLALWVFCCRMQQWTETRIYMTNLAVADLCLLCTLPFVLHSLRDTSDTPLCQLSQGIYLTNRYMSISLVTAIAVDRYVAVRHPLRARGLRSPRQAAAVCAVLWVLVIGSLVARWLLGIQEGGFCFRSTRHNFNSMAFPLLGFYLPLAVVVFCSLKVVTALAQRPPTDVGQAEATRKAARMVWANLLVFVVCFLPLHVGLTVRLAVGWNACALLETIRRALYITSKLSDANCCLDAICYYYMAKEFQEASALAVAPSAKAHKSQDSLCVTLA
- Assay Procedure: Agonist activity at GPR-35 in human HT-29 cells assessed as DMR response in presence of ML-145
pIC50: −log10 of the molar value.
Property Name: pIC50

Sample answers from the record:
{"columns": ["Structure Notation", "pIC50"],
 "data": [
  ["CC1=CC(C)=[N+]2C1=C(c1ccc(OCCn3cc(CCOCCOc4cc(C(=O)O)nc5c(C)c6nc(C(=O)O)cc(O)c6cc45)nn3)cc1)c1nc(C)cn1[B-]2(F)F", 6.11],
  ["CC1=CC(C)=[N+]2C1=C(c1ccc(OCCn3cc(CCCCCOc4cc(C(=O)O)nc5c(C)c6nc(C(=O)O)cc(O)c6cc45)nn3)cc1)c1nc(C)cn1[B-]2(F)F", 6.40]
]}

a. CC1=CC(C)=[N+]2C1=C(c1ccc(OCCn3cc(CCCCOc4cc(C(=O)O)nc5c(C)c6nc(C(=O)O)cc(O)c6cc45)nn3)cc1)c1nc(C)cn1[B-]2(F)F
b. CC1=CC(C)=[N+]2C1=C(c1ccc(OCCn3cc(CCCOc4cc(C(=O)O)nc5c(C)c6nc(C(=O)O)cc(O)c6cc45)nn3)cc1)c1nc(C)cn1[B-]2(F)F
Choose between a and b : whose measured pIC50 value is numerically larger? Mark your selection by writing its label.
a
